# TESTED_ON: Cannabinoid receptor 2 (Homo sapiens, UniProt P34972)
# Sequence (P34972 whole entry): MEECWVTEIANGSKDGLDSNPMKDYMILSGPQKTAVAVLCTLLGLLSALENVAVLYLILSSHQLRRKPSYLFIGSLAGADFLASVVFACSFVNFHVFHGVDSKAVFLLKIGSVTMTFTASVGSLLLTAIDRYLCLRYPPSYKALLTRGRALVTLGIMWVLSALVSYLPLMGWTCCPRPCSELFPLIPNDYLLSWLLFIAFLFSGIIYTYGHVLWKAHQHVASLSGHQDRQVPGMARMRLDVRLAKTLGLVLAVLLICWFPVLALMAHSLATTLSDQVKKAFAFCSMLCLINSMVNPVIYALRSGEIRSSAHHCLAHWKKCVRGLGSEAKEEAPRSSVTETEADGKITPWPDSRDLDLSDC
# ASSAY_REMARKS: Agonist activity at HA-tagged human CB2 receptor stably transfected in AtT20 cells incubated for 60 mins by FLIPR membrane potential assay
# Type: functional, cell-based
pEC50: −log10 of the molar value.
MEASURED_METRIC: pEC50

- COMPOUND: "COC(=O)[C@@H](NC(=O)c1cn(CCCCCF)c2ccccc12)C(C)C"
  MEASURED_NUMBER: 8.34
- COMPOUND: "COC(=O)[C@@H](NC(=O)c1cn(CCCCCF)c2ccccc12)C(C)(C)C"
  MEASURED_NUMBER: 8.13
